meta.source: patent US20250228873A1

Molecular target: PTPN6/SHP1 (Homo sapiens, UniProt P29350)
Construct: purchased Recation Biology Inc
Sequence (P29350 whole entry): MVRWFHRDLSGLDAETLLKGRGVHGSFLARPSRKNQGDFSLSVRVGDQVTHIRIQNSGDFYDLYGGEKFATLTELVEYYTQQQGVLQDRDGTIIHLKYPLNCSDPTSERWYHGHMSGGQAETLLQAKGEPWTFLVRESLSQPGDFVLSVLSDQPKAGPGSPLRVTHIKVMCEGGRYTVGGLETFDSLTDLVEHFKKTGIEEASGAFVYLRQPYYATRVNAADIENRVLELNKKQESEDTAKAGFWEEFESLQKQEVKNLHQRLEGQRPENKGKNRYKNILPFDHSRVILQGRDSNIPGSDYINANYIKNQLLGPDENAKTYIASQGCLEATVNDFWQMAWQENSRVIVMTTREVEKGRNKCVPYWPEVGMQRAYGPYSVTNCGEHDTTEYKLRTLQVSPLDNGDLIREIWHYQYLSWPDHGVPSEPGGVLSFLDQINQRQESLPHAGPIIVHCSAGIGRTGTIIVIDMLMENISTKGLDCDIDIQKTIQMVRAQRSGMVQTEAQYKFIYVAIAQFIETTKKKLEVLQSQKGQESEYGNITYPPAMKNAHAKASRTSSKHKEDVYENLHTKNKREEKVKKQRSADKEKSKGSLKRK
Assay: Phosphatase panel, DiFMUP fluorescence assay
Assay type: biochemical
Conditions: Table 18A; read-out: inhibitory activity PTPN6/SHP1
Measurement Name: IC50

[ask] Recorded IC50 for CCc1oc2cc(S(=O)(=O)Nc3ccc(S(=O)(=O)Nc4nccs4)cc3)ccc2c1C(=O)c1cc(Br)c(O)c(Br)c1 [PTP1B Inhibitor, reference compound] , please?
[reply] 3.47 µM

[ask] Recorded IC50 for CC(CCC[C@@H](C)[C@H]1CCC2C3C(CC(O)[C@@]21C)[C@@]1(C)CC[C@H](NCCCNCCCCN)C[C@@H]1C[C@H]3O)C(=O)O (single isomer, unassigned) [ENT-05] , please?
[reply] > 100 µM

###

Assay: Pharmacokinetic profile, intravenous administration
Type: in vivo, male SD Rats
Settings: male, SD, rat, plasma, iv, 5 mg/kg, I.V. 5 mg/kg, individual rats (Rat 1-3)
Measurement Name: AUC(0-inf) (µg·h/mL)
Enter your answer as a number in µg·h/mL; do not include the unit.

[ask] Recorded AUC(0-inf) for CC(CCC[C@@H](C)[C@H]1CCC2C3C(CC[C@@]21C)[C@@]1(C)CC[C@H](NCCCNCCCCNCCCN)C[C@@H]1C[C@H]3O)C(=O)O (single isomer, unassigned) , please?
[reply] 922

###

Target: PP2A Alpha/PP2R1A Complex (Homo sapiens)
Construct: purchased Recation Biology Inc
Sequence (P67775 whole entry): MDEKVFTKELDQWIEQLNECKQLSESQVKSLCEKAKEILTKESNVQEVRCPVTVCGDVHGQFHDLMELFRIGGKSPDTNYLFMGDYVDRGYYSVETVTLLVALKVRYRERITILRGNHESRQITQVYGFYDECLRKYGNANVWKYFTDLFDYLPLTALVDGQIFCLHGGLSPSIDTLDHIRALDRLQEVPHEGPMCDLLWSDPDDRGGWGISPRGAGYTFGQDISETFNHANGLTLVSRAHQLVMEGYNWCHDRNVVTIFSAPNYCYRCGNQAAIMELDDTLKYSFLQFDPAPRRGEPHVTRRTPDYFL
Sequence (P30153 whole entry partner): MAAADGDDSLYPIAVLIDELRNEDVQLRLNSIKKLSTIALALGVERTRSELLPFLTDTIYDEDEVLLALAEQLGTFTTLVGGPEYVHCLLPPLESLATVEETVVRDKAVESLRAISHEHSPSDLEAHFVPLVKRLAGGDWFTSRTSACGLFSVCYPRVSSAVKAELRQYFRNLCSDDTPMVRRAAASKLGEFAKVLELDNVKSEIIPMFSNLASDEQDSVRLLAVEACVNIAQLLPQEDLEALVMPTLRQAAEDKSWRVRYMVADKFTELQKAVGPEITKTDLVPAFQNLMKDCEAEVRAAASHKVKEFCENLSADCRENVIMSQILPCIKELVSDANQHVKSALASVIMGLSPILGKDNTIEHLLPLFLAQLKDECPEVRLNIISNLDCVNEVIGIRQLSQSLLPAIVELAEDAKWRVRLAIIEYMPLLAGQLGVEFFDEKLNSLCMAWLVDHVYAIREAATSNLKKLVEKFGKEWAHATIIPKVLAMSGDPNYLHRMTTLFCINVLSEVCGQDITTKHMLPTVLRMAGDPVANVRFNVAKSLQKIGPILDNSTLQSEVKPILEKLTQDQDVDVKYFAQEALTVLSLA
Assay: Phosphatase panel, DiFMUP fluorescence assay
Assay type: biochemical
Conditions: inhibitory activity PP2A Alpha/PP2R1A Complex, Table 18A
Measurement Name: IC50 (nM)
Enter your answer as a number in nM; do not include the unit.

[ask] Recorded IC50 for CC1(C(=O)O)C2CCC(O2)C1(C)C(=O)O (stereo not shown) [Canthardic Acid, Cantharidic acid, reference compound] , please?
[reply] 27.8

###

Molecular target: PP1B (Homo sapiens, UniProt P62140)
Construct: purchased Recation Biology Inc
Sequence (P62140 whole entry): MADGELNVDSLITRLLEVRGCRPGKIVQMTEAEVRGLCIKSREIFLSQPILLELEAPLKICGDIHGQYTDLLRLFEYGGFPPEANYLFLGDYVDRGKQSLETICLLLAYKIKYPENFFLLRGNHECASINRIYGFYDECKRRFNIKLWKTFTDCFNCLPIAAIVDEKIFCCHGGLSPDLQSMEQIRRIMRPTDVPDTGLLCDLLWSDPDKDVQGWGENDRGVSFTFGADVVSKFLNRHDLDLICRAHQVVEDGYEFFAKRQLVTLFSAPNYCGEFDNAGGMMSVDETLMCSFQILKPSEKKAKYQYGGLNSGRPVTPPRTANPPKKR
Test: Phosphatase panel, DiFMUP fluorescence assay
Assay type: biochemical
Details: Table 18A; read-out: inhibitory activity PP1B
Measurement Name: IC50

[ask] Recorded IC50 for CC(CCC[C@@H](C)[C@H]1CCC2C3C(CC(O)[C@@]21C)[C@@]1(C)CC[C@H](NCCCNCCCCN)C[C@@H]1C[C@H]3O)C(=O)O (single isomer, unassigned) [ENT-05] , please?
[reply] > 100 µM

###

Test: Pharmacokinetic profile, intravenous administration
Format: in vivo, male SD Rats
Settings: male, SD, rat, plasma, iv, 5 mg/kg, I.V. 5 mg/kg, Mean
Measurement Name: AUC(0-inf)

[ask] Recorded AUC(0-inf) for CC(CCC[C@@H](C)[C@H]1CCC2C3C(CC[C@@]21C)[C@@]1(C)CC[C@H](NCCCNCCCCNCCCN)C[C@@H]1C[C@H]3O)C(=O)O (single isomer, unassigned) [ENT-03] , please?
[reply] 986 µg·h/mL
